target: Recombinant human soluble guanylate cyclase (sGC), alpha 1 / beta 1 subunits, heme-free (Homo sapiens, UniProt Q02108+Q02153); construct: histidine tag (C); made in house; host or cells: Sf9 insect cells (baculovirus coinfection); experiment: Molecular assay: cGMP formation by heme-free recombinant sGC (CisBio cGMP detection kit); format: biochemical; details: 300 pM heme-free sGC, 37° C., 60 min, cGMP readout; read-out: EC50 nM, Activity of Compounds in Molecular Assay
Sequence (Q02108 whole entry partner): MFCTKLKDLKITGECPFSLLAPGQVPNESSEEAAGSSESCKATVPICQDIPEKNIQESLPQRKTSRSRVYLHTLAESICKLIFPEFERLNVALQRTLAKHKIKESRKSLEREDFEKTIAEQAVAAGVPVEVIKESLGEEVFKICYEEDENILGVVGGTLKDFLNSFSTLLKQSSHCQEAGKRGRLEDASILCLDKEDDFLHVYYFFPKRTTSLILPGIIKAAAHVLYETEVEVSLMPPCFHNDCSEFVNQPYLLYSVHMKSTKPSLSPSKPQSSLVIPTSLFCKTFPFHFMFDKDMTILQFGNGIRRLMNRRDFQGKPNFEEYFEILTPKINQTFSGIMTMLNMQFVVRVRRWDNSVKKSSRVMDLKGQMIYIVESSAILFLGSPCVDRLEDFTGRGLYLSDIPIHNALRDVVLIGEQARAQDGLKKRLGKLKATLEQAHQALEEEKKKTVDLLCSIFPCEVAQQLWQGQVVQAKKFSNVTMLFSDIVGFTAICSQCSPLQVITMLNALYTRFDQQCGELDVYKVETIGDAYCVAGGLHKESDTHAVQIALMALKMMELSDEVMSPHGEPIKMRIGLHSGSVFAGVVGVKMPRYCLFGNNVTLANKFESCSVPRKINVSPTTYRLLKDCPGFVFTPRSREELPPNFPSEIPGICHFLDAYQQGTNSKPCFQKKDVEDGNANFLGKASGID
Sequence (Q02153 whole entry): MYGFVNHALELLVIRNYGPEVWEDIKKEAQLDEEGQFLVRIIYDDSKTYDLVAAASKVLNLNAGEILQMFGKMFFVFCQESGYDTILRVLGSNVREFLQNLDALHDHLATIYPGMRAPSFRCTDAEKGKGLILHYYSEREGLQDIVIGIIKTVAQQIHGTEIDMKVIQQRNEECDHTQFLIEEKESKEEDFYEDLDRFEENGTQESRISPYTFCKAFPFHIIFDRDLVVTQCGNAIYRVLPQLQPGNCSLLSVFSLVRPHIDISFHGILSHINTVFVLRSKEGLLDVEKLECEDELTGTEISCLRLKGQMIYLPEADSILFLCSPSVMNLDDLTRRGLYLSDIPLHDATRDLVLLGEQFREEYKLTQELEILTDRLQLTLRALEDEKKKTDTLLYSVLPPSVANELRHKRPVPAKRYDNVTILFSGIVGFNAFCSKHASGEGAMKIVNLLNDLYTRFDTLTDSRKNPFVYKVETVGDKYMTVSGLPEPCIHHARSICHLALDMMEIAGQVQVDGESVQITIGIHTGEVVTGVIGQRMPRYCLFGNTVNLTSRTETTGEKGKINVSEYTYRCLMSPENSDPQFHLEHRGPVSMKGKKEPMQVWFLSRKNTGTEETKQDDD
parameter-measured: EC50 (nM)
Please give a number only; it is taken to be in nM.

Examples from the recorded data:
Cc1cc(C(=O)N2CCCCC2)ccc1COc1ccccc1-c1csc([C@H]2CC[C@H](C(=O)O)CC2)n1 [Compound 12]; 4000
Cc1cc(C(=O)N2CCCCC2)ccc1COc1c(-c2csc(N3CCC(C(=O)O)CC3)n2)cccc1C(F)(F)F [Compound 126]; 46
Cc1ccc(OCc2ccc(CN3CCOCC3)cc2C)c(-c2csc(N[C@H]3CC[C@@H](C(=O)O)C3)n2)c1 [Compound 181]; 3100

Would you kindly look at the next entry?
Query: EC50; subject: Cc1cc(C(=O)N2CCCCC2)ccc1COc1ccccc1-c1csc(N2CC3CCC(C2)C3C(=O)O)n1 (stereo not shown) [Compound 67]
2.5
